Tested on: PPARg:RXRa IVT, anti-PPARg (NR concentration 270 nM, RXRa partner concentration 90 nM)
Experiment: PBM binding z-score (relative to random genomic background probes); higher = stronger binding; sequences stand for … in GC…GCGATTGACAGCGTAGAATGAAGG
Experimental Endpoint: PBM binding z-score

INSERT INTO results (biosequence, measured_target, endpoint_value) VALUES
  ('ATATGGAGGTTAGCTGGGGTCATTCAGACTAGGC', 'PPARg:RXRa IVT, anti-PPARg (NR concentration 270 nM, RXRa partner concentration 90 nM)', 2.93),
  ('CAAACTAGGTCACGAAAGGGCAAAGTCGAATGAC', 'PPARg:RXRa IVT, anti-PPARg (NR concentration 270 nM, RXRa partner concentration 90 nM)', 9.13),
  ('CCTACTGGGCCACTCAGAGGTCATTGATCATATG', 'PPARg:RXRa IVT, anti-PPARg (NR concentration 270 nM, RXRa partner concentration 90 nM)', 5.18),
  ('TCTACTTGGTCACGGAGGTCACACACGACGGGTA', 'PPARg:RXRa IVT, anti-PPARg (NR concentration 270 nM, RXRa partner concentration 90 nM)', 4.21),
  ('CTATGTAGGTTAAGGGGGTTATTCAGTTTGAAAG', 'PPARg:RXRa IVT, anti-PPARg (NR concentration 270 nM, RXRa partner concentration 90 nM)', 7.29),
  ('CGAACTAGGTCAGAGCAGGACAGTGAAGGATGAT', 'PPARg:RXRa IVT, anti-PPARg (NR concentration 270 nM, RXRa partner concentration 90 nM)', 7.58),
  ('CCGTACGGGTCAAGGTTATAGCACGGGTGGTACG', 'PPARg:RXRa IVT, anti-PPARg (NR concentration 270 nM, RXRa partner concentration 90 nM)', 2.11),
  ('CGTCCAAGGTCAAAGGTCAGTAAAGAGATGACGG', 'PPARg:RXRa IVT, anti-PPARg (NR concentration 270 nM, RXRa partner concentration 90 nM)', 5.78),
  ('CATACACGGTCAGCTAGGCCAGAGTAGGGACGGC', 'PPARg:RXRa IVT, anti-PPARg (NR concentration 270 nM, RXRa partner concentration 90 nM)', 0.556),
  ('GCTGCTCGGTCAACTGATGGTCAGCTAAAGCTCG', 'PPARg:RXRa IVT, anti-PPARg (NR concentration 270 nM, RXRa partner concentration 90 nM)', -0.00578),
  ('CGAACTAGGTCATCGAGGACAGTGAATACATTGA', 'PPARg:RXRa IVT, anti-PPARg (NR concentration 270 nM, RXRa partner concentration 90 nM)', 8.47),
  ('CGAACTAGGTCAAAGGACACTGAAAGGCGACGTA', 'PPARg:RXRa IVT, anti-PPARg (NR concentration 270 nM, RXRa partner concentration 90 nM)', 8.34);

----------
Tested on: PPARg:RXRa 30nM:10nM, anti-RXR (NR concentration 30 nM, RXRa partner concentration 10 nM)
Test: PBM binding z-score (relative to random genomic background probes); higher = stronger binding; sequences stand for … in GC…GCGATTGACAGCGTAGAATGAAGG
Experimental Endpoint: PBM binding z-score

INSERT INTO results (biosequence, endpoint_value) VALUES
  ('CGAACTAGGTCAAAGGGCAGTGAAAGGCGACGTA', 10.2),
  ('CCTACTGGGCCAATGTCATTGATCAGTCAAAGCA', -0.129),
  ('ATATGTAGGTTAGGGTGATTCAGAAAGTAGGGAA', 2.06),
  ('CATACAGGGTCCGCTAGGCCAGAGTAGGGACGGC', -0.876),
  ('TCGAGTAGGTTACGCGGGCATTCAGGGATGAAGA', 1.46),
  ('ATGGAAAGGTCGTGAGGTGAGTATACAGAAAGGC', 1.89),
  ('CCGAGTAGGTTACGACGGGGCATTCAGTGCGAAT', -0.329),
  ('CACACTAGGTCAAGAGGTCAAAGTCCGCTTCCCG', 7.67),
  ('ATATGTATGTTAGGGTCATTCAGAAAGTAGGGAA', 1.85),
  ('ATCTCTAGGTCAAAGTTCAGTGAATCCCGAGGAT', 10.4),
  ('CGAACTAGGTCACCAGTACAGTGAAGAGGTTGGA', 5.27),
  ('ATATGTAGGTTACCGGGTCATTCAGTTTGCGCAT', 4.85),
  ('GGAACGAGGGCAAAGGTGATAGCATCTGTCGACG', 7.51),
  ('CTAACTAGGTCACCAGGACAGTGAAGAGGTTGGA', 5.34),
  ('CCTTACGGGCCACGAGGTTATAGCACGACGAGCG', -0.315),
  ('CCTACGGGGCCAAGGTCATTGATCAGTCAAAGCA', 1.3),
  ('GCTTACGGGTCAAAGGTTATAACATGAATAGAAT', 8.65),
  ('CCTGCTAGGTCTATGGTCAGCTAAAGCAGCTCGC', -1.04),
  ('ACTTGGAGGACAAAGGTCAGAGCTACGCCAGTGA', 8.21),
  ('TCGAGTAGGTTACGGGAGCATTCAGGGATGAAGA', 1.25),
  ('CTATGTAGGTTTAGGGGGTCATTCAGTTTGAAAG', 2.66),
  ('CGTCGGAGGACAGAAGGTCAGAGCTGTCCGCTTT', -0.708),
  ('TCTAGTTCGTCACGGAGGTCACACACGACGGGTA', 3.62),
  ('CTCGAAAGGTGGTGCTCAGGTGAGTATACCAAAC', -0.462),
  ('CGTCCAACGTCAAGGTCAGTGAAAGAGACTCGAA', -0.429),
  ('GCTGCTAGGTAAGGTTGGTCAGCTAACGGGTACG', -0.761),
  ('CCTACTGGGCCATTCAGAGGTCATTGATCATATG', 0.818),
  ('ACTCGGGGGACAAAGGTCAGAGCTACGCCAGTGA', 8.12),
  ('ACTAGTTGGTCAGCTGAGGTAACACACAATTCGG', 0.214),
  ('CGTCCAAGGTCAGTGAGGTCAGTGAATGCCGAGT', 0.585),
  ('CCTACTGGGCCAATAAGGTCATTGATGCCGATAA', 0.789),
  ('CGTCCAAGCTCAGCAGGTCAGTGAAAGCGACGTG', -1.14),
  ('TAGCCTAGGTCCTTCAGGGGCCAGTATAGAAAGC', -0.73),
  ('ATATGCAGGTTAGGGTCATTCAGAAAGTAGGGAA', 1.99),
  ('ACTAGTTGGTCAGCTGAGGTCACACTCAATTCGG', 0.159),
  ('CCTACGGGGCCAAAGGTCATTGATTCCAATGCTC', 8.43),
  ('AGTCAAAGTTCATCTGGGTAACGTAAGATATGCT', 3.73),
  ('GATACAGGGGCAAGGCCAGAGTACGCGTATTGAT', 0.0579),
  ('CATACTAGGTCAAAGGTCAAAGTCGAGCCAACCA', 12.6),
  ('TCGAGTAGGTTACGGTGGCATTCAGGGATGAAGA', 1.44),
  ('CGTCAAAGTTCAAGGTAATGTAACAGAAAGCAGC', 2.14),
  ('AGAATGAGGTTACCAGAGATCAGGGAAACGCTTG', 0.897),
  ('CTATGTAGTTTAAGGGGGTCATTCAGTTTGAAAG', 2.68),
  ('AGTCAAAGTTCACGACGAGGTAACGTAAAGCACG', 4.47),
  ('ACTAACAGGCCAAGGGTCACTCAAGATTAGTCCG', 4.86),
  ('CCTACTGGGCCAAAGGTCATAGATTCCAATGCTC', 11),
  ('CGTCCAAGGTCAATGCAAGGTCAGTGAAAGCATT', 2.05),
  ('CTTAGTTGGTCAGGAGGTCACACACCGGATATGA', 2.41),
  ('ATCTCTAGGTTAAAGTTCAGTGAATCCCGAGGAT', 8.86),
  ('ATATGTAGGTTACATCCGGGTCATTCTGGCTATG', 2.69),
  ('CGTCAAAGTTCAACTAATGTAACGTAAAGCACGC', 2.95);
